Origin of the recorded values: the supplement of paper PMC10290057

System: HCT116;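 note: HCT116 colorectal carcinoma cells screened at five concentrations per compound, luminescent viability scaled between DMSO wells and empty wells on each plate, curves fitted per compound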
Assay: AC50 cell viability (CellTiter-Glo); higher = less potent
Details: 48 h
Structures can show the parent of a compound that is named as a salt.
Property name: log10(AC50 cell viability) (log10 of the value in nM)
Values are log10 of AC50 cell viability in nM.

Solved entries:
1) COc1cccc2c1C(=O)c1c(O)c3c(c(O)c1C2=O)C[C@@](O)(C(=O)CO)C[C@@H]3O[C@H]1C[C@H](N)[C@@H](O)[C@H](C)O1 [Epirubicin hydrochloride]    2.57
2) O=C(NOCC(O)CO)c1ccc(F)c(F)c1Nc1ccc(I)cc1F (stereo unspecified)    2.22
3) COC1=CC2=NC=CC(=C2C=C1)OC3=CN=C(NC(=O)C/4=C(C)/N(CC(C)(C)O)N(C4=O)C5=CC=CC=C5)C=C3    4.22

Form field log10(AC50 cell viability) for item c1ccc(-c2ccc(CNc3nc(-c4ccccn4)nnc3-c3ccccc3)cc2)cc1 on HCT116: 3.17

Form field log10(AC50 cell viability) for item COc1cccc2c1C(=O)c1c(O)c3c(c(O)c1C2=O)C[C@@](O)(/C(CO)=N/NC(=O)CCCCCN1C(=O)C=CC1=O)C[C@@H]3O[C@H]1C[C@H](N)[C@H](O)[C@H](C)O1 [Aldoxorubicin hydrochlorid] on HCT116: 3.37

Form field log10(AC50 cell viability) for item C[C@@H]1O[C@@H](O[C@@H]2C=C3CC[C@@H]4[C@H](CC[C@]5(C)[C@@H](c6ccc(=O)oc6)CC[C@]45O)[C@@]3(C)CC2)[C@H](O)[C@H](O)[C@H]1O on HCT116: 0.92
